// data source = patent US20250345329A1

study target: human EGFR (d746-750/T790M/C797S) (Homo sapiens, UniProt P00533, C797S/DEL746-750/T790M)
Construct: human EGFR (d746-750/T790M/C797S) (668-end, SignalChem)
Sequence (P00533 with tags, fused parts or gaps DEL746-750/T790M/C797S): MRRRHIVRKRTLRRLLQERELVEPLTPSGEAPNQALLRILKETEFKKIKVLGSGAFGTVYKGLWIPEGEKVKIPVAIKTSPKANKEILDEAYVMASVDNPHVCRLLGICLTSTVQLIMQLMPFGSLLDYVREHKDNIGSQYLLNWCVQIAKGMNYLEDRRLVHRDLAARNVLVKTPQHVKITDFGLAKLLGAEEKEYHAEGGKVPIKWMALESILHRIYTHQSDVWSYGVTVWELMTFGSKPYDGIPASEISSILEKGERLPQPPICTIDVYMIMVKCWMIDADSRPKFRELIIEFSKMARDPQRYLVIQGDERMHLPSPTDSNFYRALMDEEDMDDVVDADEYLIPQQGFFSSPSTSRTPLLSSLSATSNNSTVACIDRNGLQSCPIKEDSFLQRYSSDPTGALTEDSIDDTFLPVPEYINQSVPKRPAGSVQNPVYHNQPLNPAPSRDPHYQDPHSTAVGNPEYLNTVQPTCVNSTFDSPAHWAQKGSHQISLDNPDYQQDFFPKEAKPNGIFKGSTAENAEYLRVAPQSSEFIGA
test: EGFR C797S enzyme inhibition activity (ADP-Glo kinase assay)
run parameters: purified enzyme 3 ng, ATP 5 μM, 25° C., 1 hour, luminescence; read-out: EGFR DTC Enzyme IC50
Method: <Experimental Example 1> Evaluation of EGFR C797S Enzyme Inhibition Activity The compounds according to the present invention were reacted together with purified human EGFR (d746-750/T790M/C797S) (668-end, SignalChem) enzyme and a specific substrate and evaluated for enzyme inhibitory activity as described below. The reaction buffer consisted of 40 mM Tris-HCl pH 7.4, 20 mM MgCl2, 0.5 mg/ml BSA, and 50 μM DTT, and all reactions of the test substances were performed in reaction buffers. […]
measured metric: IC50

INSERT INTO assay_data (compound, measured_metric, result_value) VALUES
  ('CC(C)Nc1cc(Nc2ccnc(-c3cnn(S(=O)(=O)C4CC4)c3)n2)ncc1NC(=O)Cc1ccc(C#N)cc1', 'IC50', '< 50 nM'),
  ('C[C@H]1CCOc2c(cnn2C)-c2cc(ccn2)Nc2ncc(C(=O)NCCC(F)(F)F)c(n2)N1', 'IC50', '< 50 nM'),
  ('CC(C)Nc1cc(Nc2ccnc(-c3cnn(S(=O)(=O)C4CC4)c3)n2)ncc1C(=O)N1CC(C#N)C1', 'IC50', '< 50 nM'),
  ('CO[C@H]1CCN(c2nccc(Nc3cc(NC(C)C)c(C(=O)NCCc4ccccc4)cn3)n2)C[C@H]1F (relative stereo)', 'IC50', '50 to 500 nM'),
  ('CS(=O)(=O)CC1CN(C(=O)c2cnc(Nc3ccnc(-c4cnn(S(=O)(=O)C5CC5)c4)n3)cc2NC2CCOC2)C1 (stereo not shown)', 'IC50', '< 50 nM');

Give a short answer stating reported IC50 for "CC(C)Nc1cc(Nc2ccnc(-c3cnn(S(=O)(=O)C4CC4)c3)n2)ncc1C(=O)N(C)CCN(C)C" . 50 to 500 nM

Return value of IC50 for input "CC(C)Nc1cc(Nc2ccnc(-c3cnn(S(=O)(=O)C4CC4)c3)n2)ncc1C(=O)Nc1cc(CN2CCN(C)CC2)cc(C(F)(F)F)c1" , no commentary. 50 to 500 nM
